# assay.procedure: Cytotoxicity against C57BL/6J mouse primary hepatocytes assessed as cell viability at 200 uM incubated for 24 hrs by MTT assay relative to control
# Format: toxicity, cell-based, Hepatocyte
# recorded.conditions: read-out: Activity
Each entry below lists one item and its recorded viability at 24 h, 200 µM value.

Examples with their reported viability at 24 h, 200 µM follow.
COC(=O)[C@@]12CCCC3([C@H](OCCOCCO)OC1)[C@H]2CC[C@H]1[C@@H](C)c2ccoc2C[C@@H]13	7.9%
CC(=O)OCCO[C@@H]1OC[C@@]2(CO)CCCC13[C@H]2CC[C@H]1[C@@H](C)c2ccoc2C[C@@H]13	14.1%
CC(=O)OC[C@@]12CCCC3([C@H](OCCO)OC1)[C@H]2CC[C@H]1[C@@H](C)c2ccoc2C[C@@H]13	14.2%

// next entry
**Query** So what's the measured viability at 24 h, 200 µM for this one? "COC(=O)[C@@]12CCCC3([C@H](OCCO)OC1)[C@H]2CC[C@H]1[C@@H](C)c2ccoc2C[C@@H]13"
**Result** 9.2%
